Origin of measurements: the kinase profiling compilation of Christmann-Franck et al. (2016)

- SYSTEM: ERN1 (human)
- TEST METHOD NOTES: KINOMEscan competition binding
- DETAILS: compound 10.0 µM
ASSAY READOUT: kinase still bound, per cent of control

[[record]]
smiles_repr = "COc1cc(N2CCN(C)CC2)ccc1Nc1nc(N)c(C(=O)c2c(Cl)cccc2Cl)s1"
value_measured = "99%"

[[record]]
smiles_repr = "Cc1cc([C@@H](C)Nc2ccccc2C(=O)O)c2nc(N3CCOCC3)cc(=O)n2c1"
value_measured = "91%"

[[record]]
smiles_repr = "CCC(=O)N1CCN(c2ccc(-n3c(=O)ccc4cnc5ccc(-c6cnc7ccccc7c6)cc5c43)cc2C(F)(F)F)CC1"
value_measured = "100%"

[[record]]
smiles_repr = "C=CC(=O)Nc1cc(NC(=O)c2ccc(C)c(NC(=O)c3ccno3)c2)cc(C(F)(F)F)c1"
value_measured = "90%"

[[record]]
smiles_repr = "Cc1ccc(NC(=O)c2cccc(C(C)(C)C#N)c2)cc1Nc1ccc2ncn(C)c(=O)c2c1"
value_measured = "86%"

[[record]]
smiles_repr = "Cn1c(=O)n(-c2ccc(C(C)(C)C#N)cc2)c2c3cc(-c4cnc5ccccc5c4)ccc3ncc21"
value_measured = "100%"

[[record]]
smiles_repr = "CN(C)C/C=C/C(=O)Nc1cccc(Nc2ncc3c(n2)N(C)c2ccccc2C(=O)N3C)c1"
value_measured = "69%"

[[record]]
smiles_repr = "CCOc1cc2ncc(C#N)c(Nc3ccc(OCc4ccccn4)c(Cl)c3)c2cc1NC(=O)/C=C/CN(C)C"
value_measured = "80%"

[[record]]
smiles_repr = "Nc1ccc(-c2ccc3ncc4ccc(=O)n(-c5cccc(C(F)(F)F)c5)c4c3c2)cn1"
value_measured = "100%"

[[record]]
smiles_repr = "COc1cc(C(=O)NC2CCN(C)CC2)ccc1Nc1ncc2c(n1)N(C1CCCC1)CCC(=O)N2C(C)C"
value_measured = "100%"

[[record]]
smiles_repr = "O=C(NC1CC1)c1cccc(-c2ccc3c(NC(=O)C4CC4)n[nH]c3c2)c1"
value_measured = "100%"


====

- SYSTEM: TSSK1B (human) (UniProt Q9BXA7)
- Sequence (Q9BXA7 whole entry, looked up): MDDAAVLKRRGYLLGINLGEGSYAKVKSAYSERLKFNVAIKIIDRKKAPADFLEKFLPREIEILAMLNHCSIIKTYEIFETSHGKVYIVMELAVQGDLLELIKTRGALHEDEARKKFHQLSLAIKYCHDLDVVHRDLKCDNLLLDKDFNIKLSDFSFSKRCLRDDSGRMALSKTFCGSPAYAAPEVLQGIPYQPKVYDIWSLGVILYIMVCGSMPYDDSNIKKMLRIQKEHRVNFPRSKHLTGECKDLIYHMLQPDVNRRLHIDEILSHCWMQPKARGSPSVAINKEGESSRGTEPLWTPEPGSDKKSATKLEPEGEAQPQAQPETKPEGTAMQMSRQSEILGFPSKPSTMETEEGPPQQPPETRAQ
- TEST METHOD NOTES: KINOMEscan competition binding
- DETAILS: compound 10.0 µM
ASSAY READOUT: kinase still bound, per cent of control (%)

[[record]]
compound = "CCN1CCN(Cc2ccc(Nc3ncc4c(n3)N(C)c3ccccc3C(=O)N4C)cc2C(F)(F)F)CC1"
system = "TSSK1B (human) (UniProt Q9BXA7)"
assay_readout = "kinase still bound, per cent of control"
value_measured = 49

[[record]]
compound = "CCCS(=O)(=O)Nc1ccc(F)c(C(=O)c2c[nH]c3ncc(-c4ccc(Cl)cc4)cc23)c1F"
system = "TSSK1B (human) (UniProt Q9BXA7)"
assay_readout = "kinase still bound, per cent of control"
value_measured = 99

[[record]]
compound = "Cn1c(=O)n(-c2ccc(C(C)(C)C#N)cc2)c2c3cc(-c4cnc5ccccc5c4)ccc3ncc21"
system = "TSSK1B (human) (UniProt Q9BXA7)"
assay_readout = "kinase still bound, per cent of control"
value_measured = 100

[[record]]
compound = "COc1cc(C(=O)NC2CCN(C)CC2)ccc1Nc1ncc2c(n1)N(C1CCCC1)CCC(=O)N2C(C)C"
system = "TSSK1B (human) (UniProt Q9BXA7)"
assay_readout = "kinase still bound, per cent of control"
value_measured = 100

[[record]]
compound = "CCOc1cc2ncc(C#N)c(Nc3ccc(OCc4ccccn4)c(Cl)c3)c2cc1NC(=O)/C=C/CN(C)C"
system = "TSSK1B (human) (UniProt Q9BXA7)"
assay_readout = "kinase still bound, per cent of control"
value_measured = 100

[[record]]
compound = "Cc1ccc(NC(=O)c2cccc(C(C)(C)C#N)c2)cc1Nc1ccc2ncn(C)c(=O)c2c1"
system = "TSSK1B (human) (UniProt Q9BXA7)"
assay_readout = "kinase still bound, per cent of control"
value_measured = 79

[[record]]
compound = "C[C@@H](Oc1cc(-n2cnc3ccc(CN4CCN(C)CC4)cc32)sc1C(N)=O)c1ccccc1C(F)(F)F"
system = "TSSK1B (human) (UniProt Q9BXA7)"
assay_readout = "kinase still bound, per cent of control"
value_measured = 19

[[record]]
compound = "O=C(NOC[C@H](O)CO)c1ccc(F)c(F)c1Nc1ccc(I)cc1F"
system = "TSSK1B (human) (UniProt Q9BXA7)"
assay_readout = "kinase still bound, per cent of control"
value_measured = 100

[[record]]
compound = "Cc1ccc2nc(NCCN)c3ncc(C)n3c2c1"
system = "TSSK1B (human) (UniProt Q9BXA7)"
assay_readout = "kinase still bound, per cent of control"
value_measured = 100

[[record]]
compound = "C=CC(=O)Nc1cccc(Nc2nc(N[C@H]3CC[C@H](N(C)C)CC3)nc3c2ncn3C(C)C)c1"
system = "TSSK1B (human) (UniProt Q9BXA7)"
assay_readout = "kinase still bound, per cent of control"
value_measured = 97

[[record]]
compound = "CN(C)C/C=C/C(=O)Nc1cccc(Nc2ncc3c(n2)N(C)c2ccccc2C(=O)N3C)c1"
system = "TSSK1B (human) (UniProt Q9BXA7)"
assay_readout = "kinase still bound, per cent of control"
value_measured = 53

[[record]]
compound = "OCCCNc1cc(-c2ccnc(Nc3cccc(Cl)c3)n2)ccn1"
system = "TSSK1B (human) (UniProt Q9BXA7)"
assay_readout = "kinase still bound, per cent of control"
value_measured = 100

[[record]]
compound = "O=C(O)c1ccc(Nc2ncc3c(n2)-c2ccc(Cl)cc2C(c2c(F)cccc2F)=NC3)cc1"
system = "TSSK1B (human) (UniProt Q9BXA7)"
assay_readout = "kinase still bound, per cent of control"
value_measured = 90

[[record]]
compound = "CC[C@@H]1C(=O)N(C)c2cnc(Nc3ccc(C(=O)NC4CCN(C)CC4)cc3OC)nc2N1C1CCCC1"
system = "TSSK1B (human) (UniProt Q9BXA7)"
assay_readout = "kinase still bound, per cent of control"
value_measured = 100

[[record]]
compound = "N#Cc1c(NC(=O)c2cccc3ccccc23)sc2c1CCCC2"
system = "TSSK1B (human) (UniProt Q9BXA7)"
assay_readout = "kinase still bound, per cent of control"
value_measured = 100

[[record]]
compound = "C=CC(=O)Nc1cc(NC(=O)c2ccc(C)c(NC(=O)c3ccno3)c2)cc(C(F)(F)F)c1"
system = "TSSK1B (human) (UniProt Q9BXA7)"
assay_readout = "kinase still bound, per cent of control"
value_measured = 93

[[record]]
compound = "O=C(NC1CC1)c1cccc(-c2ccc3c(NC(=O)C4CC4)n[nH]c3c2)c1"
system = "TSSK1B (human) (UniProt Q9BXA7)"
assay_readout = "kinase still bound, per cent of control"
value_measured = 69

[[record]]
compound = "CCC(=O)N1CCN(c2ccc(-n3c(=O)ccc4cnc5ccc(-c6cnc7ccccc7c6)cc5c43)cc2C(F)(F)F)CC1"
system = "TSSK1B (human) (UniProt Q9BXA7)"
assay_readout = "kinase still bound, per cent of control"
value_measured = 100

[[record]]
compound = "O=C1Nc2ccc(I)cc2/C1=C/c1cc(Br)c(O)c(Br)c1"
system = "TSSK1B (human) (UniProt Q9BXA7)"
assay_readout = "kinase still bound, per cent of control"
value_measured = 65

[[record]]
compound = "COc1cc(C(=O)NC2CCN(C)CC2)ccc1Nc1ncc2c(n1)N(C1CCCC1)C(C)CC(=O)N2C (stereo not given)"
system = "TSSK1B (human) (UniProt Q9BXA7)"
assay_readout = "kinase still bound, per cent of control"
value_measured = 100


====

Attribute: kinase still bound, per cent of control
- SYSTEM: STK38 (human)
- TEST METHOD NOTES: KINOMEscan competition binding
- DETAILS: compound 10.0 µM
ASSAY READOUT: kinase still bound, per cent of control (%)

[[record]]
smiles_repr = "N#Cc1c(NC(=O)c2cccc3ccccc23)sc2c1CCCC2"
unit_spec = "%"
value_measured = 100

[[record]]
smiles_repr = "C[C@@H](Oc1cc(-n2cnc3ccc(CN4CCN(C)CC4)cc32)sc1C(N)=O)c1ccccc1C(F)(F)F"
unit_spec = "%"
value_measured = 71

[[record]]
smiles_repr = "CCOc1cc2ncc(C#N)c(Nc3ccc(OCc4ccccn4)c(Cl)c3)c2cc1NC(=O)/C=C/CN(C)C"
unit_spec = "%"
value_measured = 81

[[record]]
smiles_repr = "O=C(NOC[C@H](O)CO)c1ccc(F)c(F)c1Nc1ccc(I)cc1F"
unit_spec = "%"
value_measured = 100

[[record]]
smiles_repr = "CCCS(=O)(=O)Nc1ccc(F)c(C(=O)c2c[nH]c3ncc(-c4ccc(Cl)cc4)cc23)c1F"
unit_spec = "%"
value_measured = 100


====

- SYSTEM: HIPK4 (human) (UniProt Q8NE63)
- Sequence (Q8NE63 whole entry, looked up): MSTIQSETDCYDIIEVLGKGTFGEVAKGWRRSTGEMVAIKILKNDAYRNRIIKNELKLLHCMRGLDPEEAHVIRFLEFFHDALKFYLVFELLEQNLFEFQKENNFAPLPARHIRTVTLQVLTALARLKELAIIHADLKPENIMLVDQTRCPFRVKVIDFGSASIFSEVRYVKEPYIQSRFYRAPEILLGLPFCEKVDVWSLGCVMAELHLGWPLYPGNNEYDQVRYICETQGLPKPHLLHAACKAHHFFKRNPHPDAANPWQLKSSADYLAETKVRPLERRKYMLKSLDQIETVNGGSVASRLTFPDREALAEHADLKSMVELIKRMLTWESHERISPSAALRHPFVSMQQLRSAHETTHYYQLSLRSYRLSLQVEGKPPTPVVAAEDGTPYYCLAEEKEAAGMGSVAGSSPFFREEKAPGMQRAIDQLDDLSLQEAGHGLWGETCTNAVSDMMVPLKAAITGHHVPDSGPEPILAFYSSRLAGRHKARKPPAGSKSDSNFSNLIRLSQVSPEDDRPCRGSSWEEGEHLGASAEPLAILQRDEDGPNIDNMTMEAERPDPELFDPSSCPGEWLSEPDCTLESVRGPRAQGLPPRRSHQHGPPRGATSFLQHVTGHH
- TEST METHOD NOTES: KINOMEscan competition binding
- DETAILS: compound 10.0 µM
ASSAY READOUT: kinase still bound, per cent of control

[[record]]
smiles_repr = "Cc1ccc(NC(=O)c2cccc(C(C)(C)C#N)c2)cc1Nc1ccc2ncn(C)c(=O)c2c1"
assay_readout = "kinase still bound, per cent of control"
value_measured = "92%"

[[record]]
smiles_repr = "O=C(O)c1ccc(Nc2ncc3c(n2)-c2ccc(Cl)cc2C(c2c(F)cccc2F)=NC3)cc1"
assay_readout = "kinase still bound, per cent of control"
value_measured = "31%"

[[record]]
smiles_repr = "Cn1c(=O)n(-c2ccc(C(C)(C)C#N)cc2)c2c3cc(-c4cnc5ccccc5c4)ccc3ncc21"
assay_readout = "kinase still bound, per cent of control"
value_measured = "100%"

[[record]]
smiles_repr = "COc1cc(N2CCN(C)CC2)ccc1Nc1nc(N)c(C(=O)c2c(Cl)cccc2Cl)s1"
assay_readout = "kinase still bound, per cent of control"
value_measured = "24%"

[[record]]
smiles_repr = "C[C@@H](Oc1cc(-n2cnc3ccc(CN4CCN(C)CC4)cc32)sc1C(N)=O)c1ccccc1C(F)(F)F"
assay_readout = "kinase still bound, per cent of control"
value_measured = "36%"

[[record]]
smiles_repr = "CCC(=O)N1CCN(c2ccc(-n3c(=O)ccc4cnc5ccc(-c6cnc7ccccc7c6)cc5c43)cc2C(F)(F)F)CC1"
assay_readout = "kinase still bound, per cent of control"
value_measured = "4.6%"

[[record]]
smiles_repr = "Cc1cc([C@@H](C)Nc2ccccc2C(=O)O)c2nc(N3CCOCC3)cc(=O)n2c1"
assay_readout = "kinase still bound, per cent of control"
value_measured = "100%"

[[record]]
smiles_repr = "CCN1CCN(Cc2ccc(Nc3ncc4c(n3)N(C)c3ccccc3C(=O)N4C)cc2C(F)(F)F)CC1"
assay_readout = "kinase still bound, per cent of control"
value_measured = "100%"

